Molecular target: T1, soluble monomeric human TREM2 (human, UniProt Q9NZC2 19-174, limits assumed)
T1 construct: Not the same as shed sTREM2; also called soluble monomeric TREM2
T1 sequence: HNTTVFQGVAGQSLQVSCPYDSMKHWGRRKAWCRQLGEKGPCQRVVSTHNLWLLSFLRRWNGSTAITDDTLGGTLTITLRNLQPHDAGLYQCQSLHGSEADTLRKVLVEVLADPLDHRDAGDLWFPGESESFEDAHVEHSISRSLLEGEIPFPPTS
Experiment: SPR (Biacore T200), 37 C; IgG on anti-CH1 chip, soluble monomeric TREM2
Measurement Label: Kd (nM)

[
  {
    "Binder": "h3.10C2.v1 hIgG1 N297G (antibody, V domains shown, Human IgG1 N297G; also called h3.10C2.v1.huIgG1.N297G) VH: EVQLVESGGGLVQPGGSLKLSCATSGFPFSNVWMHWVRQASGKGLEWIAHIKAKSDNYATYYAESVKGRFTISRDDSKTTIYLQMNSLKTEDTAVYYCTGLDYWGQGTTVTVSS VL: DVVMTQSPLSLPVTPGEPASISCRSSRSLLTSKGITSLYWYLQKPGQSPQLLIYRMSNLASGVPDRFSGSGSGTDFTLKISRVEAEDVGVYYCAQFLVYPYTFGQGTKVEIK",
    "Units Text": "nM",
    "Reported Measurement": 0.42
  },
  {
    "Binder": "3.10C2 IgG (rat variable regions; captured by anti-CH1 or anti-human Fab chips) (antibody, V domains shown, also called parental 3.10C2 clone; 3.10C2 control) VH: EVQLVETGGSLVQPGKSLKLTCATSGFPFSNVWMHWVRQSPEKQLEWIAHIKAKSDNYATYYAESVKGRFTISRDDSKTSIYLQMNSLKEDDTAIYYCTGLDYWGQGVMVTVSS VL: DTVLTQAPLSLSVTPGESASISCRSSKSLLGVRDITSLYWYLQKPGKSPQLLIYRMSNLASGVPDRFSGSGSETDFTLKISEVETEDVGVYYCAQFLRYPYTFGPGTKLELK",
    "Units Text": "nM",
    "Reported Measurement": 0.12
  },
  {
    "Binder": "Para.09 IgG with the 3.27H7 light chain (antibody, V domains shown, also called rat Para.09; Para.09-L27H7) VH: EVQLVETGGSLVQPGKSLRLTCATSGFPFSNVWLHWVRQSPEKHPEWVAHIKAKSDNYATYYAESVKGRFTISRDDSKSSVFLQMNSLKEEDTAIYYCTDILEYWGQGTLVTVSS VL: DVVLTQAPLSVSVTPGESASISCRSSRSLLTSKGITSLYWYLQKPGMSPHLLIYRMSNLASGIPDRFSGSGSETDFTLKISEVEPEDVGVYYCAQFLVYPYTFGAGTKLELK",
    "Units Text": "nM",
    "Reported Measurement": 0.011
  },
  {
    "Binder": "hPara.09.v2 hIgG1 N297G (antibody, V domains shown, also called hPara.09.H5.hIgG1.N297G) VH: EVQLVESGGGLVQPGGSLKLSCATSGFPFSNVWLHWVRQASGKGPEWVAHIKAKSDNYATYYAESVKGRFTISRDDSKNTVYLQMNSLKTEDTAVYYCTDILEYWGQGTLVTVSS VL: DVVMTQSPLSLPVTPGEPASISCRSSRSLLTSKGITSLYWYLQKPGQSPQLLIYRMSNLASGIPDRFSGSGSGTDFTLKISRVEAEDVGVYYCAQFLVYPYTFGQGTKVEIKR",
    "Units Text": "nM",
    "Reported Measurement": 0.016
  }
]
